target: T1, human CD73 ecto-domain recombinant protein (huCD73) (human, UniProt P21589 27-547)
T1 construct: also called soluble huCD73; soluble recombinant CD73
T1 sequence: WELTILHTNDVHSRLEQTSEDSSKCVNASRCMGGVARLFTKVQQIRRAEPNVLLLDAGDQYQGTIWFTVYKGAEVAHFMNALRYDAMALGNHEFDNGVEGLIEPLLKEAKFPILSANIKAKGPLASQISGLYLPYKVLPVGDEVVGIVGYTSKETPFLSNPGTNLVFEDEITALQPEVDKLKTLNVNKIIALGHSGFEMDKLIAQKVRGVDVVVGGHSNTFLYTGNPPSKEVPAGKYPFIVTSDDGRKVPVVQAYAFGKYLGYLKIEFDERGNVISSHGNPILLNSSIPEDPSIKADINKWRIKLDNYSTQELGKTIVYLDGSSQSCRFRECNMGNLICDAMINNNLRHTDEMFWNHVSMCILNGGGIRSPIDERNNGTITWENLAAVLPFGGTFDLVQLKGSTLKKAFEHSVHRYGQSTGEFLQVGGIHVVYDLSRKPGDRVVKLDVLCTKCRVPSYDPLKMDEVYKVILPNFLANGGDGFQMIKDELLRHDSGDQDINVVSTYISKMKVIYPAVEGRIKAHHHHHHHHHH
experiment_notes: indirect ELISA, coated huCD73 recombinant protein, curve fit
Description: Incubated with gradient diluted 100 μL/well of antibodies for 1 h at room temperature. After the plates were washed 3 times with 200 ul/well of PBST, 100 ul of diluted HRP-labeled secondary antibody at a ratio of 1:5000 was added to each well, and the plates were incubated for 1 hour at room temperature. […] Excitation at 530 nm, emission at 590 nm, cut-off at 570 nm, read the OD value. […]
Define the label as T when Bottom is strictly less than 100 OD value and as F in all remaining cases.

Examples with answers:
binder="JB24H2L1 (antibody, human IgG1, kappa, V domains shown, Humanized antibody of JB24Chi, human IgG1 / kappa) VH: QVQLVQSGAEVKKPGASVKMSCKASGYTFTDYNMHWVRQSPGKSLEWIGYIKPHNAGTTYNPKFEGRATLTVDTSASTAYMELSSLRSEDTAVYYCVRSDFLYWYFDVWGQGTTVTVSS VL: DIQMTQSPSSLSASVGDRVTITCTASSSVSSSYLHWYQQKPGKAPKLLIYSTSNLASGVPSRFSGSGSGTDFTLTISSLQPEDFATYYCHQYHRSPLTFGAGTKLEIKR" classification=F
binder="JB24Chi (antibody, human IgG1, kappa, V domains shown, Phage antibody, chimeric human IgG1 / human kappa full chains) VH: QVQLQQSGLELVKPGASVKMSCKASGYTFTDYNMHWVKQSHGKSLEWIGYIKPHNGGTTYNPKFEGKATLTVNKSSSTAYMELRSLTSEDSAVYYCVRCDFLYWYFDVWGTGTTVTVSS VL: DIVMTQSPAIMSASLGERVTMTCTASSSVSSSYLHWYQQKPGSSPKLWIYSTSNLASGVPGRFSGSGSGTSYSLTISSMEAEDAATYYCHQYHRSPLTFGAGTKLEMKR" classification=F

Exercise: Does JB94H2L1 (antibody, human IgG1, kappa, V domains shown, Humanized antibody of the 94 clone, human IgG1 / kappa) VH: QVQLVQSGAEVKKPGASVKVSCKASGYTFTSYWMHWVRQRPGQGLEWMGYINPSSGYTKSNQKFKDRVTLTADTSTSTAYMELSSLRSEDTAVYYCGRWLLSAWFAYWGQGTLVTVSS VL: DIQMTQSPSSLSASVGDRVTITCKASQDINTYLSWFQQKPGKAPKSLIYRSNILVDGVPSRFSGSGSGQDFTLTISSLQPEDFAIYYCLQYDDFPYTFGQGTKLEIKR have Bottom strictly under 100 OD value?
Solution: T

Hello, the source for this data is patent US20220064322A1, in case you need it.
